system: BRD4 BD2 protein (Homo sapiens (Human))
method: Fluorescence polarization binding affinity (Ki) with BRD4 BD2 protein
setup conditions: fluorescence polarization; Ki calculated from IC50
Structures can show the parent of a compound that is named as a salt.
measure: pKi
Would you please state pKi, meaning minus log10 of the concentration in mol/L, as a bare number?

// query Tell me pKi reported for Cc1nnn2c1-c1ccc(C3=CCNCC3)cc1C(Nc1ccc(CC#N)cc1)CC2 (stereo not drawn) [RC73, 2,2,2-trifluoroacetate]
// result 6.86

// query Hello, please tell me recorded pKi for this one: Cc1nnn2c1-c1ccc(-c3cn[nH]c3)cc1C(Nc1ccc(Cl)cc1)CC2 (stereo not drawn) [RB07]
// result 7.70

// query Using the record for COc1ccc2c(c1)C(Nc1ccc(F)cc1)CCc1onc(C)c1-2 (stereo not drawn) [BB189] , state its measured pKi.
// result 7.04

// query Give a short answer stating reported pKi for Cc1nnn2c1-c1ccc(-c3cnn(C)c3)cc1C(Nc1ccccc1N(C)C)CC2 (stereo not drawn) [LB01] .
// result 7.57

// query Give recorded pKi. Cc1nnn2c1-c1ccc(C3=CCN(C)CC3)cc1C(Nc1cccc(Cl)c1)CC2 (stereo not drawn) [LD07, 2,2,2-trifluoroacetate]
// result 7.48

// query Dear colleague, please send me the reported pKi for Cc1nnn2c1-c1ccc(C3=CCNCC3)cc1C(Nc1cccc(Cl)c1)CC2 (stereo not drawn) [LC79, 2,2,2-trifluoroacetate] when you can.
// result 7.47

// query Look up and state reported pKi for CC(=O)N1CC=C(c2ccc3c(c2)C(Nc2cccc(Cl)c2)CCn2nnc(C)c2-3)CC1 (stereo not drawn) [BH29]
// result 8.90

// query Look up and state reported pKi for Cc1nnn2c1-c1ccc(C3=CCN(C)CC3)cc1C(Nc1ccc(CO)cc1)CC2 (stereo not drawn) [RD41]
// result 7.26

// query Annotate the compound Cc1nnn2c1-c1ccc(C3=CCN(C(C)C)CC3)cc1[C@@H](Nc1cccc(Cl)c1)CC2 [RE10 (S), 2,2,2-trifluoroacetate] with its measured pKi.
// result 6.75

// query Look up and state reported pKi for Cc1nnn2c1-c1ccc(-c3cnn(C)c3)cc1C(Nc1ccc(C(N)=O)cc1)CC2 (stereo not drawn) [LB32]
// result 7.36

// query Answer with reported pKi of Cc1nnn2c1-c1ccc(-c3cnn(C)c3)cc1C(Nc1ccc3cccnc3c1)CC2 (stereo not drawn) [LB89]
// result 7.30

// query Give reported pKi value for CNC(=O)Cc1ccc(NC2CCn3nnc(C)c3-c3ccc(-c4cnn(C)c4)cc32)cc1 (stereo not drawn) [LB42]
// result 8.09

// query Look up and state reported pKi for CCn1cc(-c2ccc3c(c2)C(Nc2ccc(Cl)cc2)CCn2nnc(C)c2-3)cn1 (stereo not drawn) [RB05]
// result 8.24

// query Provide measured pKi value, entry: Cc1nnn2c1-c1ccc(C3=CCNC3)cc1C(Nc1cccc(O)c1)CC2 (stereo not drawn) [BJ183, 2,2,2-trifluoroacetate]
// result 7.35

// query Using known records, supply pKi for COc1ccc2c(c1)C(Nc1ccc(C#N)cc1)CCc1onc(C)c1-2 (stereo not drawn) [FA06]
// result 7.25

// query Give the reported value of pKi for this record: Cc1nnn2c1-c1ccc(C3=CCNCC3)cc1C(Nc1ccc(O)cc1)CC2 (stereo not drawn) [LC117, 2,2,2-trifluoroacetate]
// result 6.94

// query Query pKi for Cc1nnn2c1-c1ccccc1C(Nc1cccc3cnccc13)CC2 (stereo not drawn) [LB103]
// result 7.02

// query Hello, please tell me recorded pKi for this one: Cc1nnn2c1-c1ccc(-c3cnn(C)c3)cc1C(Nc1ccccc1CN(C)C)CC2 (stereo not drawn) [LC29]
// result 8.12

// query Report measured pKi; entry is CCC(C)N1CC=C(c2ccc3c(c2)C(Nc2ccc(Cl)cc2)CCn2nnc(C)c2-3)CC1 (stereo not drawn) [LD17, 2,2,2-trifluoroacetate]
// result 7.29

// query In one line, give reported pKi of the entry Cc1nnn2c1-c1ccc(-c3cnn(C)c3)cc1C(N(C=O)c1cccc(Cl)c1)CC2 (stereo not drawn) [LC174] .
// result 6.21

// query Note pKi for the compound shown: Cc1nnn2c1-c1ccc(C3CCNCC3)cc1C(Nc1ccc(Cl)cc1)CC2 (stereo not drawn) [BF169, hydrochloride]
// result 6.18

// query Note down pKi recorded for Cc1nnn2c1-c1ccc(-c3cnn(C)c3)cc1C(Oc1ccc(F)cc1F)CC2 (stereo not drawn) [BE95]
// result 7.06

// query For Cc1nnn2c1-c1ccc(-c3cncnc3)cc1C(Nc1ccc(Cl)cc1)CC2 (stereo not drawn) [RB06] , write its pKi.
// result 7.81

// query Entry Cc1nnn2c1-c1ccc(-c3cnn(C)c3)cc1C(Nc1c(F)cccc1Cl)CC2 (stereo not drawn) [LC185] needs its pKi filled in; supply it.
// result 7.79

// query Identify the reported pKi for the following entry. Cc1nnn2c1-c1ccc(C3=CCNCC3)cc1C(Nc1cccc3[nH]ccc13)CC2 (stereo not drawn) [WA78, 2,2,2-trifluoroacetate]
// result 7.70

// query Entry Cc1nnn2c1-c1ccc(C3=CCNCC3)cc1C(Nc1cccc(CO)c1)CC2 (stereo not drawn) [RD21, 2,2,2-trifluoroacetate] needs its pKi filled in; supply it.
// result 7.04

// query Quick one: give measured pKi for COC(=O)Cc1cccc(NC2CCn3nnc(C)c3-c3ccc(-c4cnn(C)c4)cc32)c1 (stereo not drawn) [LB63]
// result 7.85

// query Check the records and state pKi for Cc1nnn2c1-c1ccc(C3=CCN(C4CCC4)CC3)cc1C(Nc1cccc(Cl)c1)CC2 (stereo not drawn) [BH159, 2,2,2-trifluoroacetate]
// result 8.03

// query Identify pKi associated with the compound Cc1nnn2c1-c1ccc(C3=CCNCC3)cc1C(Nc1ccc(F)c(Cl)c1)CC2 (stereo not drawn) [LC192, 2,2,2-trifluoroacetate]
// result 7.25

// query Look up and report measured pKi for this entry: Cc1nnn2c1-c1ccc(-c3cnn(C)c3)cc1C(Nc1cccc(CN(C)C)c1)CC2 (stereo not drawn) [LC31]
// result 7.68

// query Give recorded pKi. Cc1nnn2c1-c1ccc(C3=CCN(C4CCCCC4)CC3)cc1C(Nc1cccc(Cl)c1)CC2 (stereo not drawn) [BH104, 2,2,2-trifluoroacetate]
// result 7.87

// query Kindly indicate its recorded pKi. Item: CCN1CC=C(c2ccc3c(c2)C(Nc2cccc(Cl)c2F)CCn2nnc(C)c2-3)CC1 (stereo not drawn) [RD115, 2,2,2-trifluoroacetate]
// result 7.23
